- Test system: NCI-H522 lung
- run_description: NCI-60 one-dose screen, 48 h
- condition_set: 10 µM
About 83,000 compounds went through this panel and 20% of them were active in at least one assay; those are over-represented in the sample as a whole. Calls of active or inactive are those of the source. The calls were made as follows: active = growth percent below 10; inactive = the rest.
Classes used: active, inactive

# compound, group
records = [
    ("C[N+](C)=c1ccc2nc3c(cc(Nc4ccccc4)c4ccccc43)oc-2c1", "inactive"),
    ("CCOC(=O)c1ccc(Nc2sc(C(=O)c3cccc([N+](=O)[O-])c3)c(N)c2C#N)cc1", "active"),
    ("CC(=O)Nc1c(C)cc(C)cc1C", "inactive"),
    ("O=C1c2ccccc2C(=O)N1OCc1ccccc1", "inactive"),
    ("CC1Cc2ccccc2O1 (stereo not drawn)", "inactive"),
    ("OCc1ccc(-c2ccc(-c3ccc(CO)s3)o2)s1", "inactive"),
    ("N#CCCN(CCCN1CCOCC1)CN1C(=O)c2ccccc2C1=O", "inactive"),
    ("CCOC(=O)c1cc2cccc(OC)c2oc1=O", "inactive"),
    ("CC(C)CCCC(=O)O", "inactive"),
    ("CC(=O)OCCC(C)CCC=C(C)C (stereo not drawn)", "inactive"),
    ("CN(C)c1nc2c([nH]1)c(=O)n(C)c(=O)n2C", "inactive"),
    ("CC1(O)OC(COc2ccc(Cl)cc2)COC1O (stereo not drawn)", "inactive"),
    ("CC1(C)S(=O)(=O)OCCOS1(=O)=O", "inactive"),
]

====

- System: M14 melanoma
- run_description: NCI-60 one-dose screen, 48 h (100 = growth as untreated, 0 = no growth, -100 = all killed)
- condition_set: 10 µM
About 83,000 compounds went through this panel and 20% of them were active in at least one assay; those are over-represented in the sample as a whole.

# compound, growth (%)
records = [
    ("CC(=O)c1cc2c(cc1F)C(C)(C)CCC2(C)C", 98.9),
    ("CCOC(=O)c1cc(/C=C/c2cccc(Cl)c2)on1", 78.8),
    ("COc1cc(C(N)=O)cc(OC)c1OC", 107),
    ("COc1cc2c(cc1OC)[C@H](C(=O)O)[C@@H](c1ccc(OC(C)C)c(OC)c1)N(C)C2=O", 104),
    ("CCOC(=O)C(=O)C=P(c1ccccc1)(c1ccccc1)c1ccccc1", 109),
    ("CC1(C)S(=O)(=O)OCCOS1(=O)=O", 100),
    ("CCN1C(=O)/C(=C/C=C/N(C)c2ccccc2)SC1=S", 101),
    ("c1c(-c2cc(C3CC3)[nH]n2)n[nH]c1C1CC1", 98.9),
    ("O=[N+]([O-])c1ccc(-c2noc(-c3cccs3)n2)cc1", 91.7),
    ("Nc1nc2c(c(-c3nc(N)nc4c3CCc3ccccc3-4)n1)CCc1ccccc1-2", 105),
    ("C=CC(O)CCC (centres undefined)", 106),
    ("O=C(Nc1cccc(NC(=O)Nc2cc(C(F)(F)F)ccc2Cl)c1)Nc1cc(C(F)(F)F)ccc1Cl", 21.6),
    ("O=C1C=CC(=O)N1c1ccc(I)cc1Cl", 95.1),
    ("CC1(O)OC(COc2ccc(Cl)cc2)COC1O (centres undefined)", 109),
    ("NC(N)=Nc1cc2ccccc2c2ccccc12", 85),
    ("Cc1ccc(C(O)C2CC2)cc1 (centres undefined)", 109),
    ("CC1NC(=O)NC1CCCCCC(=O)O (centres undefined)", 95),
    ("CCCC(=O)Nc1ccc2c(c1)CN1C(=O)c3ccccc3C1=N2", 113),
    ("Cc1ccc(Cl)cc1N1C(=O)CC(Sc2ccccc2N)C1=O (centres undefined)", 118),
    ("O=C(Cc1ccccc1)Cc1ccccc1", 102),
    ("COC(=O)c1[nH]c(=O)c(C#N)c(C(=O)OC)c1C(=O)c1ccccc1", 107),
    ("O=C(c1ccc(O)cc1)c1ccc(O)cc1", 98.7),
    ("O=c1cc(-c2ccccc2)[nH]c2c1CCCC2", 8.23),
    ("S=C1CCCCCN1", 105),
    ("CCOc1ccc(/C=C/C(=O)c2ccccc2)cc1", 99.7),
    ("Cc1ccc(CCCC(=O)O)c(C)c1", 107),
    ("CC(=O)OC(C(=O)O)c1ccccc1 (centres undefined)", 110),
    ("S=C1NCc2cncnc2N1", 103),
    ("COCCOC(=O)c1ccc(C(C)C)cc1", 93.2),
]
